Test: Standard protocol for determination of kcat and KM (continuous spectrophotometric assay, Acetyl CoA hydrolysis at 235 nm)
Format: biochemical
Conditions: purified protein; about 23° C.; 20 mM HEPES pH 6.8, 10% ethylene glycol, 0.2 mM acetyl CoA
Procedure: KM was calculated from the initial reaction rates obtained from concentrations of glyphosate ranging from 0.125 to 10 mM, using the Lineweaver-Burke transformation of the Michaelis-Menten equation. kcat/KM was determined by dividing the value determined for kcat by the value determined for KM. Using this methodology, kinetic parameters for a number of GAT polypeptides exemplified herein were determined. […]
Measure name: Kcat (s⁻¹)
Quick reminder: number only, in s⁻¹, skip the unit.

Molecule: SEQ ID NO: 435: GAT polypeptide (protein, 9_9H7, GAT polypeptide) MIEVKPINAEDAYEIRHRILRPNQPLEACKYETDLLGSTFHLGGYYRGKLISIASFHQAEHPELEGQKQYQLRGMATLEEYREQKAGSTLIRHAEELLRKKGADLLWCNARTSASGYYKKLGFSEQGEVYDIPPVGPHILMYKKLT
Kcat / s⁻¹: 0.467

Next molecule, please.
Reported Kcat of SEQ ID NO: 351: GAT polypeptide (protein, 24C1, GAT polypeptide) MIEVKPINAEDTYEIRHRILRPNQPLEACKYETDLLGGTFHLGGYYRDRLISIASFHQAEHSELEGQKQYQLRGMATLEGYREQKAGSTLIRHAEELLRKKGADLLWCNARTSVSGYYKKLGFSEQGEVYDIPPIGPHILMYKKLT : 0.0283
